Taken from patent US8691753B2.

Quick reference for pKi among some molecules
Biological target: MMP-10h (Homo sapiens (Human))
Sequence (P09238 99-476): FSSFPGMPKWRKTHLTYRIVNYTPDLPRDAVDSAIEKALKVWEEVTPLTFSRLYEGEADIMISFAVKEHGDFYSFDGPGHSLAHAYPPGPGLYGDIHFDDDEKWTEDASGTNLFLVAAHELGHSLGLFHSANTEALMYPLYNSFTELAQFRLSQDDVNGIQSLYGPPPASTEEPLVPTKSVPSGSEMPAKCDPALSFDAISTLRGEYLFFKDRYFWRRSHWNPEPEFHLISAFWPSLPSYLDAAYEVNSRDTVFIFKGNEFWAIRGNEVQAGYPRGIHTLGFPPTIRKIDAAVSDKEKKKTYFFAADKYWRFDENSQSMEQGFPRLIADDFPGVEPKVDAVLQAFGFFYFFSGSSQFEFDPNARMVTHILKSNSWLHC
Test: Inhibition constant (Ki) on MMP-10h
Assay type: biochemical
Details: human MMP-10
pKi: −log10 of the molar value.

molecule	tested-target	pKi
NC(=O)[C@H](CCC(=O)O)NC(=O)[C@H](CCC(=O)O)NC(=O)CCc1ccc(-c2cccc([N+](=O)[O-])c2)cc1 [Compound 55]	MMP-10h (Homo sapiens (Human))	< 6.00
NC(=O)[C@H](CCC(=O)O)NC(=O)[C@H](CCC(=O)O)NC(=O)CCc1ccc(-c2ccccc2)cc1 [Compound 40]	MMP-10h (Homo sapiens (Human))	< 6.00
NC(=O)[C@H](CCCC(=O)O)NC(=O)[C@H](CCCC(=O)O)NC(=O)CCc1cc(-c2ccc(-c3cccc(Cl)c3)cc2)no1 [Compound 13]	MMP-10h (Homo sapiens (Human))	< 5.30
NC(=O)[C@H](CCC(=O)O)NC(=O)[C@H](CCC(=O)O)NC(=O)CCc1ccc(-c2nccs2)cc1 [Compound 37]	MMP-10h (Homo sapiens (Human))	< 6.00
NC(=O)[C@H](CCC(=O)O)NC(=O)[C@H](CCCC(=O)O)NC(=O)CCc1cc(-c2ccc(-c3cccc(Cl)c3)cc2)no1 [Compound 11]	MMP-10h (Homo sapiens (Human))	6.25

--- query ---
Value of measured pKi for the entry NC(=O)[C@H](CCC(=O)O)NC(=O)[C@H](CCC(=O)O)NC(=O)CCc1cc(-c2ccc(-c3ccccc3)cc2)no1 [Compound 16] : 6.94

====

Target: MMP-12h (Homo sapiens (Human))
Sequence (P39900 106-470): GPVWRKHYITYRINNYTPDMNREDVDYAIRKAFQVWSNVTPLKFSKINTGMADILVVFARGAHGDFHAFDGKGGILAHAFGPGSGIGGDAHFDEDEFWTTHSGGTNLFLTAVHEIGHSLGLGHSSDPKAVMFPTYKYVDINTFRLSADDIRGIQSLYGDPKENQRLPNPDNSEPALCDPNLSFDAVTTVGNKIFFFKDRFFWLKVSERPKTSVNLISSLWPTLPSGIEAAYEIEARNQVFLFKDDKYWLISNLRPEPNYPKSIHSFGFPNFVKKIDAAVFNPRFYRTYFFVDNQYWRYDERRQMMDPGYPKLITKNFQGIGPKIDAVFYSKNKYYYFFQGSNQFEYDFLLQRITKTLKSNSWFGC
Assay: Inhibition constant (Ki) on MMP-12h
Type: biochemical
Conditions: read-out: Ki MMP-12h; human MMP-12
Quick reference for Ki among some molecules
Give just the numeric value; nM need not be written.

As a guide, the following entries are already answered.
molecule	Ki, nM
NC(=O)[C@H](CCC(=O)O)NC(=O)[C@H](CCC(=O)O)NC(=O)CCc1ccc(Oc2ccccc2)cc1 [Compound 28]	856
NC(=O)[C@H](CCC(=O)O)NC(=O)CCc1cc(-c2ccc(-c3cccc(Cl)c3)cc2)no1 [Compound 4]	11.8
NC(=O)[C@H](CCC(=O)O)NC(=O)[C@H](CC(=O)O)NC(=O)CCc1cc(-c2ccc(-c3cccc(Cl)c3)cc2)no1 [Compound 9]	64
CC(C)C[C@H](NC(=O)[C@H](CCC(=O)O)NC(=O)CCc1ccc(-c2ccc(-c3ccccc3)cc2)cc1)C(N)=O [Compound 69]	7.8
NC(=O)[C@H](CO)NC(=O)[C@H](CCC(=O)O)NC(=O)CCc1ccc(-c2ccccc2)cc1 [Compound 49]	41

--- query ---
Considering NC(=O)[C@H](CCC(=O)O)NC(=O)[C@H](CCC(=O)O)NC(=O)CCc1ccc(C#Cc2ccccc2)cc1 [Compound 30] , its Ki with MMP-12h (Homo sapiens (Human)) was recorded as 154

====

Target: MMP-13h (Homo sapiens (Human), UniProt P45452)
Experiment: Inhibition constant (Ki) on MMP-13h
Format: biochemical
Conditions: read-out: Ki MMP-13h; human MMP-13
Source text: The inhibition constant Ki of these compounds has been determined according to the protocol described by Devel et al, 2006, J. Biol. Chem. (7). In this table I and also in table II below, “h” corresponds to human. All of the compounds have therefore been evaluated on human MMPs.
property-measured: Ki

As a guide, the following entries are already answered.
query-smiles	test-result
NC(=O)[C@H](CC(=O)O)NC(=O)[C@H](CCC(=O)O)NC(=O)CCc1ccc(-c2cccs2)cc1	> 1000 nM
NC(=O)[C@H](Cc1c[nH]cn1)NC(=O)[C@H](CCC(=O)O)NC(=O)CCc1ccc(-c2ccccc2)cc1	> 1000 nM
NC(=O)[C@H](CO)NC(=O)[C@H](CCC(=O)O)NC(=O)CCc1ccc(-c2ccccc2)cc1	> 1000 nM

--- query ---
Value of measured Ki for the entry NCCCC[C@H](NC(=O)[C@H](CCC(=O)O)NC(=O)CCc1ccc(-c2ccc(-c3ccccc3)cc2)cc1)C(N)=O : 55 nM
